# Tested on: 786-0 complex spheroid viability
# method: Anticancer human tumor 786-0 cell line growth inhibition;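 also: spheroids exposed to agents for seven days before readout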
# details: second compound 10 µM; first compound 0.1 µM; hits give low values
measure name: viability, T/C (%)
Field format: number, assumed %, no unit text.

compound	units label	viability, T/C
Cn1ncnc1C1c2n[nH]c(=O)c3cc(F)cc(c23)NC1c1ccc(F)cc1 (stereo not drawn) + NC1CC1c1ccc(-c2cccc(O)c2)cc1	%	74.5

Sample CC(C)c1c(-c2ccccc2)nc2c(C#N)c[nH]n2c1=O + NC1CC1c1ccc(-c2cccc(O)c2)cc1 — what was its viability, T/C?
106

Sample CC1COCCN1c1cc(-c2ccnn2C)c2ccnc(-c3ccn[nH]3)c2n1 (stereo not drawn) + NC1CC1c1ccc(-c2cccc(O)c2)cc1 — what was its viability, T/C?
17

Numbers sourced from PubChem BioAssay AID1918944.
